Literature-derived pKi for Carbonic anhydrase 2 (Homo sapiens) follows.
pKi: −log10 of the molar value.

Worked examples, 5 compounds total:
| Compound | pKi |
| --- | --- |
| COCc1cc(=O)oc2cc(NC(=O)[C@H](C)NC(C)=O)ccc12 | < 5.00 |
| O=C(COc1ccc2ccc(=O)oc2c1)NCCc1ccccc1 | < 5.00 |
| O=c1ccc2cc(-n3cc(CNc4cccc([N+](=O)[O-])c4)nn3)ccc2o1 | < 4.30 |
| COc1cc(/C=C/C(=O)OCCCN(CCCCCOC(=O)c2cc(OC)c(OC)c(OC)c2)CCCOc2ccc3ccc(=O)oc3c2)cc(OC)c1OC | < 5.00 |
| Cc1cc(=O)oc2cc(OCCCCCCN3C(=S)NC4C(O)C(C(O)CO)OC43)ccc12 (stereo not drawn) | < 4.00 |

Test system Carbonic anhydrase 2 (Homo sapiens); read-out pKi; what value for `Cc1cccc(NCc2cn(-c3ccc4oc(=O)ccc4c3)nn2)c1C` ?
< 4.30

====

pKi: −log10 of the molar value.
Literature compilation of pKi measurements on Carbonic anhydrase 2 (Homo sapiens).

| Molecule | pKi |
| --- | --- |
| Oc1ccc(/C=C/c2ccc(Cl)cc2Cl)cc1 | < 4.00 |
| COc1cc(C(=O)OCCCN(C)CCCCCOC(=O)COc2ccc3ccc(=O)oc3c2)cc(OC)c1OC | < 5.00 |
| O=C(NC(=S)NCCC1=CCCCC1)c1cc2ccccc2oc1=O | < 5.00 |
| CCOC(=O)c1ccc(NC(=S)NC(=O)c2cccc(NC(C)=O)c2)cc1 | < 4.00 |

# returns recorded pKi (system: Carbonic anhydrase 2 (Homo sapiens)) for CC1CCC2(CC1)N=C(N)N=C(N)N2c1ccc(S(=O)(=O)Nc2ccccn2)cc1 (stereo not shown)
< 5.00

Tell me reported pKi for `NS(=O)(=O)c1ccc(-n2c(-c3ccc(C(=O)O)cc3)nc(-c3ccccc3)c2-c2ccccc2)cc1` , tested with Carbonic anhydrase 2 (Homo sapiens).
< 4.00

Lab note: need pKi for `NS(=O)(=O)c1ccc2c(c1)CCN2C(=O)C1CCCC1` on Carbonic anhydrase 2 (Homo sapiens), anyone have it?
8.15

====

Assembled from different publications: Ki for UniProt:P00918.
Note to self: use met only for Ki readings below 0.04 µM; a reading exactly at 0.04 µM still gets not met.

| Given Smiles | Group Label |
| --- | --- |
| CC1(C)N=C(N)N=C(N)N1c1ccc(S(=O)(=O)Nc2ccccn2)cc1.Cl | not met |
| CC(C)C[C@@H](NC(=O)OCc1ccccc1)C(=O)NCCc1ccc(S(N)(=O)=O)cc1 | met |
| COc1cc(-c2c(F)cccc2F)ccc1O[C@H](C)Cn1cc(-c2ccc(F)cc2)nn1 | not met |
| CC(C)NS(=O)(=O)c1ccc(N2C(=O)c3ccccc3C2=O)cc1 | not met |
| COc1cc(-c2ccc([N+](=O)[O-])cc2)ccc1O[C@H](C)Cn1cc(-c2ccc(F)cc2)nn1 | not met |
| Cc1ccc2nc(NC(=O)CNC(=O)OCc3ccccc3)sc2c1 | not met |
| O=C1c2ccccc2C(=O)N1c1ccc(S(=O)(=O)Nc2ccccc2Cl)cc1 | not met |
| NS(=O)(=O)c1ccc(NC(=O)c2cc3occc3n2Cc2ccccc2Cl)cc1 | met |

A record lists `O=c1ccc2cc(-n3cc(CNc4cccc(C(F)(F)F)c4)nn3)ccc2o1` . Is its Ki below 0.04 µM?
not met

Please determine if `COc1cc(/C=C/C(=O)OCCCCCCN(CCCOC(=O)c2cc(OC)c(OC)c(OC)c2)CCCOc2ccc3ccc(=O)oc3c2)cc(OC)c1OC` is below 0.04 µM in terms of Ki.
not met

Consider the compound `Cc1cc(=O)oc2c(CN3CCN(Cc4ccc5c(c4)OCO5)CC3)c(O)ccc12` . Is its Ki strictly less than 0.04 µM?
not met

====

Literature compilation of pKi measurements on Carbonic anhydrase 2 (Homo sapiens, UniProt P00918).
pKi: −log10 of the molar value.

| Given Smiles | Result |
| --- | --- |
| Cc1cccc(NS(=O)(=O)c2ccc(N3C(=O)c4ccccc4C3=O)cc2)c1 | < 5.00 |
| NS(=O)(=O)c1ccc(-n2c(-c3ccccc3O)nc(-c3ccccc3)c2-c2ccccc2)cc1 | < 4.00 |
| O=C(COc1ccc2oc(=O)ccc2c1)NCc1ccccc1 | < 5.00 |
| CN(C)CCCNC(=S)NC(=O)c1cc2ccccc2oc1=O | < 5.00 |

Lab note: need pKi for `O=c1ccc2cc(-n3cc(CNc4ccc(Cl)cc4)nn3)ccc2o1` on Carbonic anhydrase 2 (Homo sapiens, UniProt P00918), anyone have it?
< 4.30
